The compounds listed here are annotated with their PAMPA.
conditions: passive permeability, 5 hours at room temperature
// return numeric value only (unit: ×10⁻⁶ cm/s, not printed)

CN(C)CCCNc1nccc(-c2c(-c3ccc(F)cc3)nc3ccccn23)n1 : 8.2
CN(C)Cc1ccn2c(-c3ccnc(N)n3)c(-c3ccc(F)cc3)nc2n1 : 11.8
CN(C)Cc1ccc2c(-c3ccnc(N)n3)c(-c3ccc(F)cc3)nn2c1 : 18.5
CN(C)Cc1cc2nc(-c3ccc(F)cc3)c(-c3ccnc(N)n3)n2cn1 : 5.8
CN1CCC(c2ccc(Nc3nccc(-c4c(-c5ccc(F)cc5)nc5ccccn45)n3)cc2)CC1 : 0
Fc1ccc(-c2nc3ccccn3c2-c2ccnc(NC3CCOCC3)n2)cc1 : 14.5

Lookup: For the compound CN1CCC(n2cc(Nc3nccc(-c4c(-c5ccc(F)cc5)nc5ccccn45)n3)cn2)CC1 , report PAMPA.
Found: 12.4

Lookup: Report PAMPA, nothing else, for this compound: CN1CCN(c2ccc(Nc3nccc(-c4c(-c5ccc(F)cc5)nc5ccccn45)n3)cc2)CC1
Found: 0

Lookup: Fill in PAMPA for record CN(C)CCNc1ccc2nc(-c3ccc(F)cc3)c(-c3ccnc(N)n3)n2n1
Found: 1

Lookup: Dear colleague, please send me the reported PAMPA for CN(C)Cc1ccc2c(c1)nc(-c1ccc(F)cc1)n2-c1ccnc(N)n1 when you can.
Found: 3.2

---

Attribute: LLE
tgt: PfPKG (Plasmodium falciparum)
Sequence (Q8I719 whole entry): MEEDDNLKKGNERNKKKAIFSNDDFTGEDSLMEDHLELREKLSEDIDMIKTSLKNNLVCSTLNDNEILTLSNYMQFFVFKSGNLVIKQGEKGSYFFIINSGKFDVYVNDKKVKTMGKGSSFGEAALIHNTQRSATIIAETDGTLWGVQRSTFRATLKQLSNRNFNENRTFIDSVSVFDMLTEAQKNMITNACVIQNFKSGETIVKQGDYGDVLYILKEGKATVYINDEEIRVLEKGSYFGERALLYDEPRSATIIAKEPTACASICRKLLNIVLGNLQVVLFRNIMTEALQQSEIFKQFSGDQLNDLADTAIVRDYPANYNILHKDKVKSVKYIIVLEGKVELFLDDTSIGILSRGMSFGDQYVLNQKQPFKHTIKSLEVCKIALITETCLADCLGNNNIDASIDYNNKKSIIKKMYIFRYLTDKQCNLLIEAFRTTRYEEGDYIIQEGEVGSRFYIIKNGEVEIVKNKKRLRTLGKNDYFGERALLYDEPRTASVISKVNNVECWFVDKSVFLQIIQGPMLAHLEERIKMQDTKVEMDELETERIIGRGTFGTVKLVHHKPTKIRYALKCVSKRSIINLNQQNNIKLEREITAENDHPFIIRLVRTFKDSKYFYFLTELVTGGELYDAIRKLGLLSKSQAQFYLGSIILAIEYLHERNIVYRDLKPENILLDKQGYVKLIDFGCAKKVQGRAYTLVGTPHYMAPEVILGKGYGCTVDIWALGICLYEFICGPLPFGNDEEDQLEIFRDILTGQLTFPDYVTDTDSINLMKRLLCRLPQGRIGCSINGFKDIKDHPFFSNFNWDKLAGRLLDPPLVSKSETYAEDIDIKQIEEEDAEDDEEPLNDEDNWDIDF
assay protocol: biochemical
Assay type: biochemical
conditions: LLE (pIC50 - mLogD)
Form: value (number only, do not type unit).

CN(C)Cc1ccn2c(-c3ccncn3)c(-c3ccc(F)cc3)nc2c1 [Compound 7, reference compound] : 5.9

Lookup: Quick one: give measured LLE for CN(C)Cc1ccn2c(-c3cn[nH]c3)c(-c3ccc(F)cc3)nc2c1 [Compound 9]
Found: 5.1

Lookup: Write down LLE measured for item CN(C)Cc1ccn2c(-c3cc(N)ncn3)c(-c3ccc(F)cc3)nc2c1 [Compound 5]
Found: 4.7

Lookup: Specify LLE for CN(C)Cc1ccn2c(-c3ccnc(N)c3)c(-c3ccc(F)cc3)nc2c1 [Compound 10] and stop.
Found: 5.3

Lookup: Determine from records and report LLE for CN(C)Cc1ccn2c(-c3ccncc3)c(-c3ccc(F)cc3)nc2c1 [Compound 8]
Found: 4.2

---

assay protocol: Kinetic solubility
Format: physicochemical
conditions: PBS pH 7.4 with 2% DMSO, PBS pH7.4, 98:2 PBS:DMSO, 90 minutes, target 200 μM
Known solubility kinetic at 1.5 h, 200 µM of a selection of molecules
Numbers only; they are read as µM.

CN1CCN(c2ccc(Nc3nccc(-c4c(-c5ccc(F)cc5)nc5ccccn45)n3)cc2)CC1 : 9

Lookup: Read the entry CN1CCC(n2cc(Nc3nccc(-c4c(-c5ccc(F)cc5)nc5ccccn45)n3)cn2)CC1 and write its reported solubility kinetic at 1.5 h, 200 µM.
Found: 237

---

tgt: PfPKG (Plasmodium falciparum)
assay protocol: biochemical
Type: biochemical
conditions: recombinant kinase; read-out: PfPKG pIC50 (converted)
// reported IC50 per item
# output: bare number, implied unit µM

Known results for compounds:
CN(C)Cc1ccn2c(-c3cc(N)ncn3)c(-c3ccc(F)cc3)nc2c1 [Compound 5] : 0.0871
CN1CCC(c2ccc(Nc3nccc(-c4c(-c5ccc(F)cc5)nc5ccccn45)n3)cc2)CC1 [Compound 17] : 0.00501
CN(C)Cc1ccc2c(-c3ccnc(N)n3)c(-c3ccc(F)cc3)nn2c1 [Compound 29] : 0.00407
Fc1ccc(-c2nc3ccccn3c2-c2ccnc(NC3CCOCC3)n2)cc1 [Compound 15] : 0.132
CN(C)Cc1ccn2c(-c3ccnc(N)n3)c(-c3ccc(F)cc3)nc2c1 [Compound 2, reference compound] : 0.002

Lookup: Look up and report IC50, with PfPKG (Plasmodium falciparum) as system, for CN(C)Cc1ccn2c(-c3ccnc(Nc4ccc(N5CCNCC5)cc4)c3)c(-c3ccc(F)cc3)nc2c1 [Compound 11]
Found: 0.257

Lookup: Provide IC50, recorded with PfPKG (Plasmodium falciparum), of CN(C)Cc1ccc2c(c1)nc(-c1ccc(F)cc1)n2-c1ccnc(N)n1 [Compound 23]
Found: 0.0309

Lookup: Write down measured IC50 (PfPKG (Plasmodium falciparum)) for this compound. CN(C)Cc1ccn2c(-c3cn[nH]c3)c(-c3ccc(F)cc3)nc2c1 [Compound 9]
Found: 0.12

Lookup: Tell me IC50 of CN(C)Cc1ccn2c(-c3ccncc3)c(-c3ccc(F)cc3)nc2c1 [Compound 8] when tested on PfPKG (Plasmodium falciparum).
Found: 0.0776

Lookup: Find IC50 for CN(C)CCCNc1nccc(-c2c(-c3ccc(F)cc3)nc3ccccn23)n1 [Compound 14] on PfPKG (Plasmodium falciparum) and write it down.
Found: 0.851
